Listed below: EC50 values for each entry.
- System: purified WT mTfR-1 (ELISA coat) (mouse, UniProt Q62351 89-763)
- Sequence (Q62351 89-763): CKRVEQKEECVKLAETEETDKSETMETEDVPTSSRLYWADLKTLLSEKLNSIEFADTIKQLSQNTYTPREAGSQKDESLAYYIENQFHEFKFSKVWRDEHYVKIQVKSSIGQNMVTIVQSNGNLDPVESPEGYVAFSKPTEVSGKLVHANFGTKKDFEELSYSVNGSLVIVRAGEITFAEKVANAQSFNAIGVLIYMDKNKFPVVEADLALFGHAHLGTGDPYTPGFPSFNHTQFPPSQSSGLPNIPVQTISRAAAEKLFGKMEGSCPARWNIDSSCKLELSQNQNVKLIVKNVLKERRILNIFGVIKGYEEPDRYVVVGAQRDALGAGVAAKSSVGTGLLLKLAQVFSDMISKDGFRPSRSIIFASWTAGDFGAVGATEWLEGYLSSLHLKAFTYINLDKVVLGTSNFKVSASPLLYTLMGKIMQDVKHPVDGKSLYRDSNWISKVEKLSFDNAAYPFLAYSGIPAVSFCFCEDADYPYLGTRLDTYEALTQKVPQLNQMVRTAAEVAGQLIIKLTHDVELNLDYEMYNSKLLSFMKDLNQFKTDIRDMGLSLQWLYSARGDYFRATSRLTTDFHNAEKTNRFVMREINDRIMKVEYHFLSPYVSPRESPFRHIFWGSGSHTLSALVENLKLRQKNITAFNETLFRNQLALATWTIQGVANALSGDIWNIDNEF
- Assay Info: ELISA, coated purified mTfR-1
Give your result in nM as a bare value.

Check out these entries, answers already filled in.
Binder	Endpoint Unit	EC50
Clone H VNAR-hFc fusion (Fc fusion, not shown: a dimerising Fc or GST, bivalent VNAR-Fc) ARVDQTPQTITKETGESLTINCVLRDSNCELSSTYWYRKKSGSTNEESISKGGRYVETVNSGSKSFSLRINDLVVEDSGTYRCNVQQFPSSSNGRYWCDVYGGGTAVTVNA	nM	1.6
Clone H variant 1 VNAR-hFc (Fc fusion, not shown: a dimerising Fc or GST, also called clone H var) ARVDQTPQTITKETGESLTINCVLRDSNCELSSTYWYRKKSGSTNEESISKGGRYVETVNSGSKSFSLRINDLVVEDSGTYRCNVVQWPSSSNGRYWCDVYGGGTAVTVNA	nM	0.69
8D3 antibody (anti-mouse TfR-1 control; 8D3-hFc formatted antibody) (antibody, V domains shown) VH: EVQLVESGGGLVQPGNSLTLSCVASGFTFSNYGMHWIRQAPKKGLEWIAMIYYDSSKMNYADTVKGRFTISRDNSKNTLYLEMNSLRSEDTAMYYCAVPTSHYVVDVWGQGVSVTVSS VL: DIQMTQSPASLSASLEEIVTITCQASQDIGNWLAWYQQKPGKSPQLLIYGATSLADGVPSRFSGSRSGTQFSLKISRVQVEDIGIYYCLQAYNTPWTFGGGTKLELK	nM	0.49

Now examine the next entry.
Incoming: # query: EC50 of entry Clone H variant 10 VNAR-hFc (Fc fusion, not shown: a dimerising Fc or GST, also called clone H var; 10) ARVDQTPQTITKETGESLTINCVLRDSNCELSSTYWYRKKSGSTNEESISKGGRYVETVNSGSKSFSLRINDLVVEDSGTYRCNVQQFPSWFNGRYWCDVYGGGTAVTVNA
Outgoing: 2.5
